Target: GST-Ap-NF-kB RHD (Exaiptasia pallida (Aiptasia), UniProt A0A913YAJ5 2-422)
Sequence: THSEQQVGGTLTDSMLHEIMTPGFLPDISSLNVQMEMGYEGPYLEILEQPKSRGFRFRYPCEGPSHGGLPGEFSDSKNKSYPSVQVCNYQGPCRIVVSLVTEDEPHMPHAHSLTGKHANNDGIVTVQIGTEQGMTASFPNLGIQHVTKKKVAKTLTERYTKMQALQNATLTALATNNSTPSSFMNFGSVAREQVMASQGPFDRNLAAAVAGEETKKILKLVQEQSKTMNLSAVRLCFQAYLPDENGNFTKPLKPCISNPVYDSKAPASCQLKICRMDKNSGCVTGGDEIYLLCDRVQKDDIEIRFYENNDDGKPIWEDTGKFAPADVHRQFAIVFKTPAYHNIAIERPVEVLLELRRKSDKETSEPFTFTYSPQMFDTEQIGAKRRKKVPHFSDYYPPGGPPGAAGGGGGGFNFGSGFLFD
Assay: protein-binding microarray (PBM); PBM: ~300 nM protein, 6 mM HEPES pH 7.8, 80 mM KCl, 0.5 mM EDTA, 0.5 mM EGTA, 6% glycerol, 35 ng/ul poly-dIdC, 1% milk, 1 h, room temperature; high values mean tight binding
Conditions: dsDNA, one strand shown
Field: binding signal. Provide a value for each of the sequences that follow.
Enter your answer as a number in z-score; do not include the unit.

Inquiry: Fill in: binding signal of `CCGATTAACATCAGAAGTTCCCATGATGTTAATCGGGTCTTGATTCGCTTGACGCTGCTG` is ___
Reply text: 2.2

Inquiry: Thanks! And `CCGATTAACATCAAAGGGGCTACTGATGTTAATCGGGTCTTGATTCGCTTGACGCTGCTG` ?
Reply text: 2.79

Inquiry: Thanks! And `CCGATTAACATCAAAATTCCCTGTGATGTTAATCGGGTCTTGATTCGCTTGACGCTGCTG` ?
Reply text: 4.81

Inquiry: Thanks! And `CCGATTAACATCAGGAGTACCCCTGATGTTAATCGGGTCTTGATTCGCTTGACGCTGCTG` ?
Reply text: 3.01

Inquiry: Thanks! And `CCGATTAACATCAGGGACTACCCTGATGTTAATCGGGTCTTGATTCGCTTGACGCTGCTG` ?
Reply text: 6.16

Inquiry: Thanks! And `CCGATTAACATCAGGACTCCCCCTGATGTTAATCGGGTCTTGATTCGCTTGACGCTGCTG` ?
Reply text: 8.82

Inquiry: Thanks! And `CCGATTAACATCAACCAATTCCCTGATGTTAATCGGGTCTTGATTCGCTTGACGCTGCTG` ?
Reply text: 2.49

Inquiry: Thanks! And `CCGATTAACATCAATAAAACCCCTGATGTTAATCGGGTCTTGATTCGCTTGACGCTGCTG` ?
Reply text: 5.73

Inquiry: Thanks! And `CCGATTAACATCAGGGGAAACGATGATGTTAATCGGGTCTTGATTCGCTTGACGCTGCTG` ?
Reply text: 4.89

====

Field: binding signal. Provide a value for each of the sequences that follow.
Target: GST-Ap-NF-kB RHD (Exaiptasia pallida (Aiptasia), UniProt A0A913YAJ5 2-422)
Sequence: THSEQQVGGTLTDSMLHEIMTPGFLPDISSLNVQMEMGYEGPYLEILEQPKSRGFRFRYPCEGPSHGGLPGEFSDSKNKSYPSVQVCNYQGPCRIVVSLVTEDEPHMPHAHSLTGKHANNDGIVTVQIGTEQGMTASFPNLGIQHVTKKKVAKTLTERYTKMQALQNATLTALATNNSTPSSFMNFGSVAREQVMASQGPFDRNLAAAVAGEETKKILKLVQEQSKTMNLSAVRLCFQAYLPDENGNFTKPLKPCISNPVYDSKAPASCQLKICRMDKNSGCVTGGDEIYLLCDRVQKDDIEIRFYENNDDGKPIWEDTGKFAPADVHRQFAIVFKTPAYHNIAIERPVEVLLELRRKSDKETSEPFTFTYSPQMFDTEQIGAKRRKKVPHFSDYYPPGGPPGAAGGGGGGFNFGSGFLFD
Test: protein-binding microarray (PBM); PBM: ~300 nM protein, 6 mM HEPES pH 7.8, 80 mM KCl, 0.5 mM EDTA, 0.5 mM EGTA, 6% glycerol, 35 ng/ul poly-dIdC, 1% milk, 1 h, room temperature; Ap Aiptasia and Nv Nematostella (sea anemones) / Co Capsaspora / Aq Amphimedon (sponge) / Dm Drosophila / Hu human; RHD is the Rel homology domain; high values mean tight binding
Settings: dsDNA, one strand shown
Enter your answer as a number in z-score; do not include the unit.

Inquiry: Fill in: binding signal of `CCGATTAACATCAGAAAAGTCCCTGATGTTAATCGGGTCTTGATTCGCTTGACGCTGCTG` is ___
Reply text: 7.92

Inquiry: Thanks! And `CCGATTAACATCAGAATACCCCCTGATGTTAATCGGGTCTTGATTCGCTTGACGCTGCTG` ?
Reply text: 7.89

Inquiry: Thanks! And `CCGATTAACATCAGGGGGGGACATGATGTTAATCGGGTCTTGATTCGCTTGACGCTGCTG` ?
Reply text: 5.67

Inquiry: Thanks! And `CCGATTAACATCAGGGAGGTACCTGATGTTAATCGGGTCTTGATTCGCTTGACGCTGCTG` ?
Reply text: 3.34

Inquiry: Thanks! And `CCGATTAACATCAGGGCTGCCCCTGATGTTAATCGGGTCTTGATTCGCTTGACGCTGCTG` ?
Reply text: 4.09

Inquiry: Thanks! And `CCGATTAACATCATCCCTTGTCATGATGTTAATCGGGTCTTGATTCGCTTGACGCTGCTG` ?
Reply text: 1.2

Inquiry: Thanks! And `CCGATTAACATCAGGGGTTTCTATGATGTTAATCGGGTCTTGATTCGCTTGACGCTGCTG` ?
Reply text: 5.36

Inquiry: Thanks! And `CCGATTAACATCAGGTTTCCCCATGATGTTAATCGGGTCTTGATTCGCTTGACGCTGCTG` ?
Reply text: 6.59

Inquiry: Thanks! And `CCGATTAACATCAGGGGAAGTAATGATGTTAATCGGGTCTTGATTCGCTTGACGCTGCTG` ?
Reply text: 4.58

Inquiry: Thanks! And `CCGATTAACATCAGGGAATTTACTGATGTTAATCGGGTCTTGATTCGCTTGACGCTGCTG` ?
Reply text: 4.29

Inquiry: Thanks! And `CCGATTAACATCAAAAATCCCCCTGATGTTAATCGGGTCTTGATTCGCTTGACGCTGCTG` ?
Reply text: 11.1

Inquiry: Thanks! And `CCGATTAACATCAAGTATTCCCATGATGTTAATCGGGTCTTGATTCGCTTGACGCTGCTG` ?
Reply text: 2.44

Inquiry: Thanks! And `CCGATTAACATCAGGGACTGCCCTGATGTTAATCGGGTCTTGATTCGCTTGACGCTGCTG` ?
Reply text: 4.31

Inquiry: Thanks! And `CCGATTAACATCAAGTACTTCCCTGATGTTAATCGGGTCTTGATTCGCTTGACGCTGCTG` ?
Reply text: 2.1

Inquiry: Thanks! And `CCGATTAACATCAGAAATCCCAATGATGTTAATCGGGTCTTGATTCGCTTGACGCTGCTG` ?
Reply text: 2.44

Inquiry: Thanks! And `CCGATTAACATCAGGGAAAAGGATGATGTTAATCGGGTCTTGATTCGCTTGACGCTGCTG` ?
Reply text: 1.79

Inquiry: Thanks! And `CCGATTAACATCAGGGAACACCCTGATGTTAATCGGGTCTTGATTCGCTTGACGCTGCTG` ?
Reply text: 5.03

Inquiry: Thanks! And `CCGATTAACATCACGGGGGGGGATGATGTTAATCGGGTCTTGATTCGCTTGACGCTGCTG` ?
Reply text: 6.27
